Can you tell me z-score for the items I'm about to list?
Experiment: E. coli growth modulation, two-sided OD650, primary screen, E. coli filamentation project, strain DRC41, 24 h (AID 1093);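 further: MC1000 strain lacking acrAB efflux and sulA so SOS filamentation is blocked; test concentration not given here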
Settings: OD650, 24 h, higher = more signal, called active from +8 up or from −8 down
Note: the reply should be a number with no unit written.

Can you share its z-score? I mean this compound: CCOC(=O)C[C@H]1[C@H](OC(=O)Cc2ccc3c(c2)OCO3)[C@@H](NC(=O)c2ccc(-c3ccccc3)cc2)c2cc(OCCCO)ccc2N1C(=O)Cc1ccc(OC)cc1
1.09

Can you share its z-score? I mean this compound: CC(C)C[C@@H]1NC(=O)[C@H]2C[C@@H](C(=O)NCCCCCCN)[C@@H](c3ccc(O)cc3)N2C1=O
-0.11

Can you share its z-score? I mean this compound: C#CCN(CC1=CCCCC1)[C@H](c1ccccc1Br)[C@@H](O)Cc1ccccc1
1.79

Can you share its z-score? I mean this compound: CN(C)CCCNC(=O)[C@@]1(c2ccc([N+](=O)[O-])cc2)CC(=O)N(C2CCCCC2)[C@@H]1c1ccc(CO)cc1I
-0.112

Can you share its z-score? I mean this compound: C=C(CCCC)C(=O)CC[C@@H](OC(=O)c1cccnc1)c1ccc(CO)o1
-0.211

Can you share its z-score? I mean this compound: O=C1O[C@H](c2ccccc2)[C@H](c2ccccc2)N2[C@H]1[C@@H](C(=O)NC[C@H](O)c1ccccc1)[C@]1(C(=O)Nc3ccccc31)[C@H]2c1ccc(OCCO)cc1
-0.965

Can you share its z-score? I mean this compound: C=CCNC(=O)[C@@H]1[C@H]2C(=O)O[C@H](c3ccccc3)[C@H](c3ccccc3)N2[C@H](c2ccc(OCCO)cc2)[C@@]12C(=O)Nc1ccc(C#CCCO)cc12
-0.207

Can you share its z-score? I mean this compound: CCCC[C@@H]1C[C@H]1[C@@H](NC(=O)c1ccco1)c1ccc(Cl)cc1
-0.815

Can you share its z-score? I mean this compound: C=CCN1C(=O)[C@]2(O[C@H](CCO)[C@@H]([Si](C)(C)c3ccc(OC)cc3)[C@@H]2C)c2cc(N3CCCCC3=O)ccc21
1.27

Can you share its z-score? I mean this compound: COc1ccc([Si](C)(C)[C@@H]2[C@@H](CCO)O[C@]3(C(=O)N(Cc4ccc(N5C(=O)COc6ccccc65)cc4)c4ccccc43)[C@H]2C)cc1
0.49

Can you share its z-score? I mean this compound: CC(C)(C)OC(=O)CC[C@@]1(C(N)=O)N=C(c2ccc(OCCCO)cc2)O[C@@H]1c1ccccc1
-0.511

Can you share its z-score? I mean this compound: COc1cc(OC)c(C(O)C2C=CC3C(=O)NC(=O)C3N2Nc2ccc(Cl)cc2Cl)cc1Br (centres undefined)
-1.99

Can you share its z-score? I mean this compound: O=C1OCCC/C=C\[C@H]2OC34C=CCN(Cn5nnc6ccccc65)C(=O)[C@H]3N(CCCCCCO)C(=O)[C@@H]4C12 (some centres undefined)
2.87

Can you share its z-score? I mean this compound: CC(C)(C)OC(=O)CC[C@]12N=C(c3ccc(OCCCO)cc3)O[C@H]1c1ccccc1N(CCS(=O)(=O)c1ccccc1)C2=O
0.522

Can you share its z-score? I mean this compound: CCCN1C(=O)[C@]2(CCS(=O)(=O)c3ccccc3)N=C(c3ccc(OCCCO)cc3)O[C@@H]2c2ccccc21
1.97

Can you share its z-score? I mean this compound: COC(=O)[C@@]1(Cc2ccc(OC)cc2)[C@H]2c3cc(C(=O)N4CCCC4)n(Cc4ccc(OC)c(OC)c4)c3C[C@H]2CN1C(=O)c1ccccc1
-0.148

Can you share its z-score? I mean this compound: CCCCCCC#C[Si](O[C@H](c1ccccc1)c1cn([C@H](CO)Cc2ccccc2)nn1)(C(C)C)C(C)C
1.16

Can you share its z-score? I mean this compound: O=C1NC(=O)C2C1C=CC(C(O)C(c1ccccc1)c1ccccc1)N2Nc1ccc(Cl)cc1Cl (centres undefined)
-1.27

Can you share its z-score? I mean this compound: CCCC=C(CCC)[C@@H](NC(=O)Oc1ccc(F)cc1)c1ccc(C(=O)OC)cc1
-0.211

Can you share its z-score? I mean this compound: CCOc1cc(C(O)C2C=CC3C(=O)N(c4ccccc4)C(=O)C3N2Nc2ccccc2)ccc1O (centres undefined)
0.374

Can you share its z-score? I mean this compound: COCCCNC(=O)[C@@]1(Cc2ccccc2)N=C(c2ccc(OCCCO)cc2)O[C@H]1c1ccccc1
0.474

Can you share its z-score? I mean this compound: CCCCCC1=C2CNC(CCC)(C(=O)OC)C=C2C(C)C1=O (centres undefined)
-0.48

Can you share its z-score? I mean this compound: CN1C(=O)C2C=CC(C(O)C3=C[C@H]4C[C@@H](C3)C4(C)C)N(Nc3ccccc3)C2C1=O (some centres undefined)
0.0208

Can you share its z-score? I mean this compound: C=CCOC(=O)[C@H]1[C@@H]2C(=O)O[C@@H](c3ccccc3)[C@@H](c3ccccc3)N2[C@@H](c2ccc(OCCOC(=O)[C@@H]3C[C@@H]4C(=O)N5CCC[C@H]5C(=O)N4[C@@H]3c3cccc(OCCO)c3)cc2)[C@]12C(=O)Nc1ccccc12
0.0706

Can you share its z-score? I mean this compound: C=CC[C@]12N=C(c3ccc(OCCCO)cc3)O[C@H]1c1ccccc1N(Cc1ccccc1)C2=O
0.508

Can you share its z-score? I mean this compound: C=C[C@H](COC(C)=O)N(C(=O)OC(C)(C)C)S(=O)(=O)c1ccc(Br)cc1
1.47

Can you share its z-score? I mean this compound: NC(=O)[C@@H]1[C@H]2C(=O)O[C@H](c3ccccc3)[C@H](c3ccccc3)N2[C@H](c2ccc(O)cc2)[C@@]12C(=O)Nc1ccc(C#CC3(O)CCCCCC3)cc12
-0.441

Can you share its z-score? I mean this compound: COCCOC(=O)N1C(=O)[C@@]2(c3cc(C#CCCO)ccc31)[C@H](C(=O)Nc1nc3ccccc3s1)[C@H]1C(=O)O[C@H](c3ccccc3)[C@H](c3ccccc3)N1[C@@H]2c1ccc(OCCO)cc1
0.176

Can you share its z-score? I mean this compound: COc1ccc([Si](C)(C)[C@H]2[C@H](CCn3cc([C@H](O)c4ccccc4)nn3)O[C@@]3(C(=O)N(Cc4cccc(N5CCOC5=O)c4)c4ccccc43)[C@@H]2C)cc1
-0.565
